Ref: paper PMC8442276

- protocolDescription: Water solubility by slow-stir method
- Type: physicochemical
- appliedConditions: reagent grade water in sealed all-glass aspirator bottles, water, thermodynamic from solid, Laboratory B, first attempt, equilibrium not demonstrated, not included in mean, read-out: Mean measured Concentration (water solubility), first attempt
valueType: solubility (ng/mL)
Lab book: enter the figure in ng/mL, no units written.

Ask: If you can, please state the reported solubility value of CCCCCCC1CCCCC1 .
Result: 5.6

---

- protocolDescription: Water solubility by slow-stir method
- Format: physicochemical
- appliedConditions: reagent grade water in sealed all-glass aspirator bottles, 20 °C, water, thermodynamic from solid, Laboratory B, second attempt, read-out: Mean measured Concentration (water solubility)
valueType: solubility (µg/mL)
Lab book: enter the figure in µg/mL, no units written.

Ask: If you can, please state the reported solubility value of CCCCCCC1CCCCC1 [n-Hexylcyclohexane] .
Result: 0.012

---

- protocolDescription: Water solubility by slow-stir method
- Type: physicochemical
- appliedConditions: reagent grade water in sealed all-glass aspirator bottles, water, thermodynamic from solid, Laboratory A, read-out: Mean measured Concentration (water solubility)
valueType: solubility

Ask: If you can, please state the reported solubility value of CCCCCCC1CCCCC1 .
Result: 0.015 µg/mL

---

- protocolDescription: Water solubility by slow-stir method
- Type: physicochemical
- appliedConditions: reagent grade water in sealed all-glass aspirator bottles, 20 °C, water, thermodynamic from solid, Laboratory E, second attempt, read-out: Mean measured Concentration (water solubility)
valueType: solubility (µg/mL)
Lab book: enter the figure in µg/mL, no units written.

Ask: If you can, please state the reported solubility value of CCCCCCC1CCCCC1 .
Result: 0.016

---

- protocolDescription: Water solubility by slow-stir method
- Assay type: physicochemical
- appliedConditions: reagent grade water in sealed all-glass aspirator bottles, water, thermodynamic from solid, Laboratory C, read-out: Mean measured Concentration (water solubility)
valueType: solubility (µg/mL)
Lab book: enter the figure in µg/mL, no units written.

Ask: If you can, please state the reported solubility value of CCCCCCC1CCCCC1 .
Result: 0.014
